Data provenance is patent US6858591B2.

Tested on: S. aureus GC 2216
methodNotes: In vitro MIC, broth dilution
Format: cell-based
testContext: Staphylococcus aureus, GC2216
endpoint: MIC

• COc1ccc(Cn2c(=O)ccn([C@@H]3OC([C@H](O)[C@H](NCCCNC(=O)[C@H](CC(=O)OCc4ccccc4)NC(=O)OCc4ccccc4)C(=O)OC(C)(C)C)[C@@H](O[Si](C)(C)C(C)(C)C)[C@H]3O[Si](C)(C)C(C)(C)C)c2=O)cc1 (some centres unmarked) = > 128 µg/mL
• COc1ccc(Cn2c(=O)ccn([C@@H]3OC([C@H](O)[C@H](NCCCNC(=O)[C@@H](NC(=O)OCc4ccccc4)[C@@H](O)C(C)C)C(=O)OC(C)(C)C)[C@@H](O[Si](C)(C)C(C)(C)C)[C@H]3O[Si](C)(C)C(C)(C)C)c2=O)cc1 (some centres unmarked) = > 128 µg/mL

* * *

Test system: S. aureus GC 1131
methodNotes: In vitro MIC, broth dilution
Type: cell-based
testContext: Staphylococcus aureus, GC1131; S. aureus GC 1131; read-out: MIC
Reported MIC values follow for various compounds
endpoint: MIC (µg/mL)

- COc1ccc(Cn2c(=O)ccn([C@@H]3OC(C(O)[C@H](NCCCNC(=O)[C@@H](N)CC(=O)O)C(=O)OC(C)(C)C)[C@@H](O[Si](C)(C)C(C)(C)C)[C@H]3O[Si](C)(C)C(C)(C)C)c2=O)cc1 (stereo in doubt) [Example 17]: 128
- COc1ccc(Cn2c(=O)ccn([C@@H]3OC([C@H](O)[C@H](NCCCNC(=O)[C@@H](N)[C@@H](O)C(C)C)C(=O)OC(C)(C)C)[C@@H](O[Si](C)(C)C(C)(C)C)[C@H]3O[Si](C)(C)C(C)(C)C)c2=O)cc1 (some centres unmarked) [Example 2]: 4

* * *

Test system: E. cloacae GC 3783
methodNotes: In vitro MIC, broth dilution
Assay type: cell-based
testContext: Enterobacter cloacae, GC3783
Reported MIC values follow for various molecules
endpoint: MIC

* COc1ccc(Cn2c(=O)ccn([C@@H]3OC([C@H](O)[C@H](NCCCNC(=O)[C@@H](NC(=O)OCc4ccccc4)[C@@H](O)C(C)C)C(=O)OC(C)(C)C)[C@@H](O[Si](C)(C)C(C)(C)C)[C@H]3O[Si](C)(C)C(C)(C)C)c2=O)cc1 (stereo partly drawn) [Example 1] | > 128 µg/mL
* COc1ccc(Cn2c(=O)ccn([C@@H]3OC([C@H](O)[C@H](NCCCNC(=O)[C@H](CC(=O)OCc4ccccc4)NC(=O)OCc4ccccc4)C(=O)OC(C)(C)C)[C@@H](O[Si](C)(C)C(C)(C)C)[C@H]3O[Si](C)(C)C(C)(C)C)c2=O)cc1 (stereo partly drawn) [Example 16] | > 128 µg/mL
* COc1ccc(Cn2c(=O)ccn([C@@H]3OC([C@@H](O)[C@H](NCCCNC(=O)[C@@H](NC(=O)OCc4ccccc4)[C@H](C)O)C(=O)OC(C)(C)C)[C@@H](O[Si](C)(C)C(C)(C)C)[C@H]3O[Si](C)(C)C(C)(C)C)c2=O)cc1 (stereo partly drawn) [Example 8] | 64 µg/mL

* * *

Tested on: E. faecalis GC 842
methodNotes: In vitro MIC, broth dilution
Format: cell-based
testContext: Enterococcus faecalis, GC842; E. faecalis GC 842; read-out: MIC
endpoint: MIC

- COc1ccc(Cn2c(=O)ccn([C@@H]3OC([C@H](O)[C@H](NCCCNC(=O)[C@H](CC(C)C)NC(=O)[C@H](CCCNC(=N)N[N+](=O)[O-])NC(=O)N[C@H](C(=O)OCc4ccccc4)C(C)C)C(=O)O)[C@@H](O)[C@H]3O)c2=O)cc1 (some centres unmarked): 128 µg/mL
- CCOC(=O)C(NCCCNC(=O)[C@@H](N)[C@H](C)O)[C@@H](O)[C@H]1O[C@H](n2ccc(=O)[nH]c2=O)[C@H](OC(C)=O)[C@@H]1OC(C)=O (some centres unmarked): > 128 µg/mL
- COc1ccc(Cn2c(=O)ccn([C@@H]3OC([C@H](O)[C@H](NCCCNC(=O)[C@@H](N)CC(C)C)C(=O)OC(C)(C)C)[C@@H](O[Si](C)(C)C(C)(C)C)[C@H]3O[Si](C)(C)C(C)(C)C)c2=O)cc1 (some centres unmarked): 16 µg/mL
- COc1ccc(Cn2c(=O)ccn([C@@H]3OC([C@H](O)[C@H](NCCCNC(=O)[C@H](CC(C)C)NC(=O)[C@H](CCCNC(=N)N)NC(=O)N[C@H](C(=O)O)C(C)C)C(=O)O)[C@@H](O)[C@H]3O)c2=O)cc1 (some centres unmarked): > 128 µg/mL
- COc1ccc(Cn2c(=O)ccn([C@@H]3OC([C@H](O)[C@H](NCCCNC(=O)[C@@H](N)[C@H](C)O)C(=O)OC(C)(C)C)[C@@H](O)[C@H]3O)c2=O)cc1 (some centres unmarked): > 128 µg/mL
- COc1ccc(Cn2c(=O)ccn([C@@H]3OC([C@H](O)[C@H](NCCCNC(=O)[C@@H](N)Cc4ccccc4)C(=O)OC(C)(C)C)[C@@H](O[Si](C)(C)C(C)(C)C)[C@H]3O[Si](C)(C)C(C)(C)C)c2=O)cc1 (some centres unmarked): 128 µg/mL
- CC(C)C[C@H](NC(=O)OCc1ccccc1)C(=O)NCCCN[C@H](C(=O)OC(C)(C)C)[C@@H](O)C1O[C@@H](n2ccc(=O)[nH]c2=O)[C@H](O[Si](C)(C)C(C)(C)C)[C@@H]1O[Si](C)(C)C(C)(C)C (some centres unmarked): > 128 µg/mL
- CCCCCCCCCCCCCC(=O)OC(C)[C@H](NC(=O)OCc1ccccc1)C(=O)NCCCNC(C(=O)OCC)C(O)C1O[C@@H](n2ccc(=O)[nH]c2=O)[C@H](OC(C)=O)[C@@H]1OC(C)=O (stereo in doubt): > 128 µg/mL
- CCOC(=O)C(NCCCNC(=O)[C@@H](NC(=O)[C@H](CCCNC(=N)N[N+](=O)O)NC(=O)N[C@H](C(=O)OCc1ccccc1)C(C)C)[C@@H](O)C(C)C)C(O)[C@H]1O[C@@H](n2ccc(=O)[nH]c2=O)[C@H](OC(C)=O)[C@@H]1OC(C)=O (some centres unmarked): > 128 µg/mL
- CCOC(=O)C(NCCCNC(=O)[C@@H](NC(=O)[C@H](CCCNC(=N)N[N+](=O)O)NC(=O)N[C@H](C(=O)OCc1ccccc1)C(C)C)C(C)O)C(O)[C@H]1O[C@H](n2ccc(=O)[nH]c2=O)[C@H](OC(C)=O)[C@@H]1OC(C)=O (some centres unmarked): > 128 µg/mL
- CCOC(=O)C(NCCCNC(=O)[C@H](CC(C)C)NC(=O)OCc1ccccc1)C(OC(C)=O)[C@H]1O[C@H](n2ccc(=O)[nH]c2=O)[C@H](OC(C)=O)[C@@H]1OC(C)=O (some centres unmarked) [Example 38a]: > 128 µg/mL
- COc1ccc(Cn2c(=O)ccn([C@@H]3OC([C@H](O)[C@H](NCCCNC(=O)[C@H](CC(C)C)NC(=O)OCc4ccccc4)C(=O)OC(C)(C)C)[C@@H](O[Si](C)(C)C(C)(C)C)[C@H]3O[Si](C)(C)C(C)(C)C)c2=O)cc1 (some centres unmarked): > 128 µg/mL
- CCOC(=O)C(NCCCNC(=O)[C@@H](N)CC(C)C)[C@@H](OC(C)=O)[C@H]1O[C@H](n2ccc(=O)[nH]c2=O)[C@H](OC(C)=O)[C@@H]1OC(C)=O (some centres unmarked): > 128 µg/mL
- COc1ccc(Cn2c(=O)ccn([C@@H]3OC([C@H](O)[C@H](NCCCNC(=O)[C@@H](N)CCCCN)C(=O)OC(C)(C)C)[C@@H](O[Si](C)(C)C(C)(C)C)[C@H]3O[Si](C)(C)C(C)(C)C)c2=O)cc1 (some centres unmarked): 8 µg/mL
- CC(C)C[C@H](N)C(=O)NCCCN[C@H](C(=O)OC(C)(C)C)[C@@H](O)C1O[C@@H](n2ccc(=O)[nH]c2=O)[C@H](O[Si](C)(C)C(C)(C)C)[C@@H]1O[Si](C)(C)C(C)(C)C (some centres unmarked): 2 µg/mL
- CC(C)C[C@H](NC(=O)OCc1ccccc1)C(=O)NCCCN[C@H](C(=O)O)[C@@H](O)C1O[C@@H](n2ccc(=O)[nH]c2=O)[C@H](O)[C@@H]1O (some centres unmarked): 128 µg/mL
- CCOC(=O)C(NCCCNC(=O)[C@@H](N)CC(C)C)[C@@H](OC(C)=O)[C@H]1O[C@@H](n2ccc(=O)[nH]c2=O)[C@H](OC(C)=O)[C@@H]1OC(C)=O (some centres unmarked): > 128 µg/mL
